test system: human fibroblast MRC-5 cell line; experiment: Cytotoxicity assay on MRC-5 fibroblasts (resazurin); format: cell-based

# COMPOUND, MEASUREMENT TARGET, cytotoxicity classification from CC50
rows = [
    ("CN(C)c1ccc(/C=C/C(=O)/C=C/c2ccc(F)cn2)cc1 [Compound A5]", "human fibroblast MRC-5 cell line", "rather not cytotoxic"),
    ("COc1cc(/C=C/C(=O)/C=C/c2ccc(O)c(OC)c2)ccc1O [Compound A18]", "human fibroblast MRC-5 cell line", "rather cytotoxic"),
    ("O=C(/C=C/c1ccccc1)/C=C/c1ncccn1 [Compound A14]", "human fibroblast MRC-5 cell line", "rather cytotoxic"),
    ("O=C(/C=C/c1ccc(Cl)cc1)/C=C/c1ccc(Cl)cc1 [Compound A9]", "human fibroblast MRC-5 cell line", "rather not cytotoxic"),
    ("COc1ccc(/C=C/C(=O)/C=C/c2ccc3ccccc3c2)cc1 [Compound A3]", "human fibroblast MRC-5 cell line", "rather not cytotoxic"),
    ("Cc1ccc(/C=C/C(=O)/C=C/c2ccc(C)cc2)cc1 [Compound A17]", "human fibroblast MRC-5 cell line", "rather not cytotoxic"),
]

* * *

assay: Cytotoxicity assay on MRC-5 fibroblasts (resazurin); format: cell-based, human; settings: human

# COMPOUND, PREFIX OPERATOR, CC50 at 72 h (µM)
rows = [
    ("CN(C)c1ccc([C@H]2CC(=O)C[C@H](c3ccc(N(C)C)cc3)S2)cc1 [Compound B12]", "=", 4.96),
    ("O=C(/C=C/c1ccccc1)/C=C/c1ccccn1 [Compound A10]", "=", 1.53),
    ("CN(C)c1ccc(/C=C/C(=O)/C=C/c2ccc(N(C)C)cc2)cc1 [Compound A19]", "=", 62.3),
    ("O=C(/C=C/c1ccccc1Cl)/C=C/c1ccccc1Cl [Compound A11]", "=", 29.4),
    ("O=C(/C=C/c1ccccc1)/C=C/c1ncccn1 [Compound A14]", "=", 1.56),
    ("COc1ccc(O)c(/C=C/C(=O)/C=C/c2cc(OC)ccc2O)c1 [Compound A2]", "=", 1.88),
    ("COc1ccc(/C=C/C(=O)/C=C/c2ccc3ccccc3c2)cc1 [Compound A3]", "=", 32),
    ("O=C1C[C@H](c2ccccn2)[S+]([O-])[C@@H](c2ccccn2)C1 [Compound B3]", "=", 8),
    ("O=C(/C=C/c1ccccn1)/C=C/c1ccccn1 [Compound A1]", "=", 1.91),
    ("Cc1ccc(/C=C/C(=O)/C=C/c2ccc(C)o2)o1 [Compound A16]", "=", 5.36),
    ("O=C1C[C@H](c2ccccn2)S(=O)(=O)[C@@H](c2ccccn2)C1 [Compound B9]", "=", 7.89),
    ("COc1cc(/C=C/C(=O)/C=C/c2ccc(O)c(OC)c2)ccc1O [Compound A18]", "=", 1.06),
    ("O=C1C[C@H](c2ccccn2)S(=O)(=O)[C@H](c2ccccn2)C1 [Compound B11]", "=", 7.47),
    ("CN(C)c1ccc(/C=C/C(=O)/C=C/c2nccs2)cc1 [Compound A6]", ">", 64),
    ("O=C(/C=C/c1ccc(Cl)cc1)/C=C/c1ccc(Cl)cc1 [Compound A9]", "=", 42.4),
    ("CN(C)c1ccc(/C=C/C(=O)/C=C/c2ccc(F)cn2)cc1 [Compound A5]", "=", 32.2),
    ("O=C(/C=C/c1ccncc1)/C=C/c1ccncc1 [Compound A13]", "=", 1.13),
    ("Cc1ccc(/C=C/C(=O)/C=C/c2ccc(C)cc2)cc1 [Compound A17]", "=", 32.5),
    ("O=C1C[C@H](c2ccccn2)[S+]([O-])[C@H](c2ccccn2)C1 (stereo partly shown) [Compound B5]", "=", 8.06),
    ("O=C1C[C@@H](c2c(Cl)cccc2Cl)S[C@H](c2c(Cl)cccc2Cl)C1 [Compound B8]", ">", 64),
    ("COc1cc(Br)c(OC)c([C@@H]2CC(=O)C[C@H](c3cc(OC)cc(Br)c3OC)S2)c1 [Compound B1]", ">", 64),
    ("O=C(/C=C/c1ccccc1)/C=C/c1ccncc1 [Compound A7]", "=", 1.99),
]
